assay: Volume of distribution at steady state in Sprague-Dawley rat at 2 mg/kg, iv measured upto 24 hrs by LC-MS/MS analysis; assay type: ADME, organism-based; conditions: in vivo, read-out: Vdss
Recorded Metric: Vd
Please answer using a numeric value trailed by its unit.

[in] Give the reported value of Vd for this record: "C=CC(=O)N1CCC[C@@H](n2nc(-c3ccc(Oc4ccccc4)cc3)c3c(N)n[nH]c(=O)c32)C1"
[out] 1.55 L/kg

----------
molecular target: Cytochrome P450 1A2 (Homo sapiens)
Sequence (P05177 whole entry): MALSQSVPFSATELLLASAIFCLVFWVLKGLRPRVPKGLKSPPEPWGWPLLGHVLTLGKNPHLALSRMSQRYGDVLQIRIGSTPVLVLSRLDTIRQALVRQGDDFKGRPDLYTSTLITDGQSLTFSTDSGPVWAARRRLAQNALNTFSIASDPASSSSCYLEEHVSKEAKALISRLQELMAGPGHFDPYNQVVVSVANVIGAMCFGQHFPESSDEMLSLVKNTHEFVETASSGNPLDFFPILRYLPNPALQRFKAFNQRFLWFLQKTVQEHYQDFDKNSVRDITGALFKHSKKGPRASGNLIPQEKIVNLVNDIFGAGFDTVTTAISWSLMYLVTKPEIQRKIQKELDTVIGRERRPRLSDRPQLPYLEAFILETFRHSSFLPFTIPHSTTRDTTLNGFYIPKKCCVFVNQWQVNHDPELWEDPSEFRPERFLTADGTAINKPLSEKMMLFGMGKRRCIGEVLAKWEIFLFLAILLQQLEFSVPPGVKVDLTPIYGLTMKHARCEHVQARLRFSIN
Recorded Metric: IC50

[in] Give the reported value of IC50 for this record: "C=CC(=O)N1CCC[C@@H](n2nc(-c3ccc(Oc4ccccc4)cc3)c3c(N)n[nH]c(=O)c32)C1"
[out] > 100 µM

----------
assay: AUC in BALB/c mouse 2 mg/kg, po measured upto 24 hrs by LC-MS/MS analysis; format: ADME, organism-based; set-up: route oral, dose 2 mg/kg, time <=24; conditions: in vivo
Recorded Metric: AUC at 24 h (ng·h/mL)
Respond numerically; units are ng·h/mL and should not be typed.

Below, each entry is followed by its recorded AUC at 24 h result.
Smiles Entry | Recorded Metric | Experimental Result
C=CC(=O)N(C)CCn1nc(-c2ccc(Oc3ccccc3)cc2)c2c(N)n[nH]c(=O)c21 | AUC at 24 h | 49.5
C=CC(=O)N1CCC[C@@H](n2nc(-c3ccc(Oc4ccccc4)cc3)c3c(N)ncnc32)C1 | AUC at 24 h | 21.4
C=CC(=O)N[C@H]1CC[C@@H](n2nc(-c3ccc(Oc4ccccc4)cc3)c3c(N)n[nH]c(=O)c32)CC1 | AUC at 24 h | 161
C=CC(=O)N1CC[C@@H](n2nc(-c3ccc(Oc4ccccc4)cc3)c3c(N)n[nH]c(=O)c32)C1 | AUC at 24 h | 68

Proceed to the following item.
[in] Give the reported value of AUC at 24 h for this record: "C=CC(=O)N1CCC[C@@H](n2nc(-c3ccc(Oc4ccccc4)cc3)c3c(N)n[nH]c(=O)c32)C1"
[out] 128

----------
target: Cytochrome P450 3A4 (Homo sapiens, UniProt P08684)
Sequence (P08684 whole entry): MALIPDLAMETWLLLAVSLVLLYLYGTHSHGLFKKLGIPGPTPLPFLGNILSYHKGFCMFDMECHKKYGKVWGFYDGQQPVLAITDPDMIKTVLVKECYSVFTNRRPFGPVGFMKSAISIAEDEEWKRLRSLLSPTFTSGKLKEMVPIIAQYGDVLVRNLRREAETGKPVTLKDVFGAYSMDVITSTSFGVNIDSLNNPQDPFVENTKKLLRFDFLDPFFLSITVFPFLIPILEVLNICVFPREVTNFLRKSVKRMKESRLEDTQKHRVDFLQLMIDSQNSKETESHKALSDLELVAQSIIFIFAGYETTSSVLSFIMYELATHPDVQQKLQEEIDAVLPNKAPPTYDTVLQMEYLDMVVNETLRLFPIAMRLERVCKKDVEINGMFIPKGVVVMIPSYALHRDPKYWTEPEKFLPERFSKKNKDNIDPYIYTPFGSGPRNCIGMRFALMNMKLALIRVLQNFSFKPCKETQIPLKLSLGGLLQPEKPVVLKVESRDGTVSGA
Recorded Metric: IC50 (µM)
Respond numerically; units are µM and should not be typed.

[in] Give IC50; test system Cytochrome P450 3A4 (Homo sapiens, UniProt P08684); molecule "C=CC(=O)N1CCC[C@@H](n2nc(-c3ccc(Oc4ccccc4)cc3)c3c(N)n[nH]c(=O)c32)C1"
[out] 37.3

----------
assay: AUC (0 to last) in BALB/c mouse at 1 mg/kg, iv measured upto 24 hrs by LC-MS/MS analysis; assay type: ADME, organism-based; parameters: route intravenous, dose 1 mg/kg, time <=24; conditions: in vivo
Recorded Metric: AUC(0-t) at 24 h (ng·h/mL)
Respond numerically; units are ng·h/mL and should not be typed.

Molecule | Recorded Metric | Experimental Result
C=CC(=O)N1CCC[C@@H](n2nc(-c3ccc(Oc4ccccc4)cc3)c3c(N)n[nH]c(=O)c32)C1 | AUC(0-t) at 24 h | 576

[in] Give the reported value of AUC(0-t) at 24 h for this record: C=CC(=O)N1CCC[C@@H](n2nc(-c3ccc(Oc4ccccc4)cc3)c3c(N)ncnc32)C1 [IBRUTINIB]
[out] 628

----------
target: Tyrosine-protein kinase BTK (Homo sapiens); assay: Inhibition of recombinant human His-tagged full length BTK expressed in baculovirus expression system using TK1 as substrate incubated for 60 mins by HTRF assay
Sequence (Q06187 whole entry): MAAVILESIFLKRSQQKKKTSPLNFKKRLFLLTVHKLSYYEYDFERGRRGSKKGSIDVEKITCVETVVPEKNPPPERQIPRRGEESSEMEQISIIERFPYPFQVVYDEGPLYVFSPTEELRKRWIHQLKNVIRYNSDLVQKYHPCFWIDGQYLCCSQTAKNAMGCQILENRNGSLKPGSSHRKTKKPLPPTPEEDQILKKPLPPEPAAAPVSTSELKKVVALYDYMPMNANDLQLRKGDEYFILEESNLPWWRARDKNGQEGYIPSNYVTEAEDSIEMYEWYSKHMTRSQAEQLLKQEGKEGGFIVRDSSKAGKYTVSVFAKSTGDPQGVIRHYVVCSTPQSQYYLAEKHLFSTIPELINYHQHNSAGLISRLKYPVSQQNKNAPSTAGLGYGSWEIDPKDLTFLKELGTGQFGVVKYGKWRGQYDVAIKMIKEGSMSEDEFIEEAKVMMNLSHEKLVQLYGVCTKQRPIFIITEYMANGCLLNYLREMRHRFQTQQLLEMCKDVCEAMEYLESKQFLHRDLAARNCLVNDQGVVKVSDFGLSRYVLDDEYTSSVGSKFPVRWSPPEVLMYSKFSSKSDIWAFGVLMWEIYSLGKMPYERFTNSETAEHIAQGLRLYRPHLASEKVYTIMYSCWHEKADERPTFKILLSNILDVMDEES
pIC50: −log10 of the molar value.
pIC50 vs 8: at or above is Criterion met, below is Criterion not met.

Compound | Group
C=CC(=O)N[C@H]1CC[C@@H](n2nc(-c3ccc(Oc4ccccc4)cc3)c3c(N)n[nH]c(=O)c32)CC1 | Criterion met
C=CC(=O)N1CCC[C@@H](Nc2ncnc(N)c2C(=O)c2ccc(Oc3ccccc3)cc2)C1 | Criterion not met
C=CC(=O)N1CCC[C@@H](n2nc(-c3ccc(Oc4ccccc4)cc3)c3c(N)nn(C)c(=O)c32)C1 | Criterion not met
CN(C)C/C=C/C(=O)N1CCC[C@@H](n2nc(-c3ccc(Oc4ccccc4)cc3)c3c(N)n[nH]c(=O)c32)C1 | Criterion met
C=CC(=O)N1CCC[C@@H](n2nc(-c3ccc(Oc4ccccc4)cc3)c3c(N)noc(=O)c32)C1 | Criterion not met

[in] For this compound, is measured pIC50 8 or higher? "C=CC(=O)N1CCC[C@@H](Nc2ncnc3[nH]c4ccc(Oc5ccccc5)cc4c(=O)c23)C1"
[out] Criterion not met

[in] For this compound, is measured pIC50 8 or higher? C=CC(=O)N1CCCC(n2nc(-c3ccc(Oc4ccccc4)cc3)c3cc4c(N)noc4cc32)C1 (configuration not stated)
[out] Criterion not met

[in] For this compound, is measured pIC50 8 or higher? "C=CC(=O)N1CCC[C@@H](Nc2ncnc3[nH]c(=O)c(-c4ccc(Oc5ccccc5)cc4)cc23)C1"
[out] Criterion not met
